- Protocol Details: protein stability index of a GFP-peptide fusion (yeast GPS) (PSI 1-4); higher = more stable; sorted into four equal gates, so the index is relative within each strain
- Protocol Conditions: ubr1∆
# cutoff 3 applies to protein stability index; >= gives Criterion met, < gives Criterion not met

>>> qualitative_label("EEELWNSPSKGNSERPS [YIL149C/MLP2]")
"Criterion met"
>>> qualitative_label("FNGIENQSAYEWNGKSF [ISW2]")
"Criterion met"
>>> qualitative_label("VDSISLHKIFYKVLKNN [YCG1]")
"Criterion not met"
>>> qualitative_label("FTNPSVDIQIINQYQLL [SWI1]")
"Criterion not met"
>>> qualitative_label("EVWSVSWNLTGTILSSA [YGL100W/SEH1]")
"Criterion not met"
>>> qualitative_label("HETLARSSEEINSDNQN [RPN3]")
"Criterion met"

---

- Protocol Details: protein stability index of a GFP-peptide fusion (yeast GPS) (PSI 1-4); higher = more stable; sorted into four equal gates, so the index is relative within each strain
- Protocol Conditions: ubr1∆
Recorded Metric: protein stability index

>>> numeric_value("TIQSDLNLSLHKLDLAK [SMC2]")
2.83
>>> numeric_value("KKEKLKQENSTLLKKAN [RPC82]")
2.85
>>> numeric_value("KVLLDSKDVQQIDYKLE [RPS7A]")
3.2
>>> numeric_value("TRLYDYEIRDIDQDIHG [SSN2]")
3.49
>>> numeric_value("KVSGVSLLALWKEKKEK [RPS23A]")
1.77
>>> numeric_value("KNVETLEEKILAKKTHK [SMC4]")
2.92
>>> numeric_value("EGQENNYNSTSRSTEKK [SIR4]")
3.25
>>> numeric_value("GKKRFRVVTVDGKLIDI [SMC4]")
3.55
>>> numeric_value("GAKPAGSTGGLGASFGQ [YGL172W/NUP49]")
3.54
>>> numeric_value("QNKKNLKWVAVVPDLGH [SSN2]")
3.02
>>> numeric_value("FMDEIDSIGSTRVEGSG [RPT6]")
2.46
>>> numeric_value("QLIKVAVHNGDRKHVAA [RPL9B]")
2.65
>>> numeric_value("KKLSINSAARNIQHLLY [PRE7]")
2.8
>>> numeric_value("NIDQEGSKQADRMAKYL [PGD1]")
3.17
>>> numeric_value("VSKKWAAAGVCEKWAAS [RPL14B]")
2.51
>>> numeric_value("FYQGKTGVVYNVTKSSV [RPL21A]")
2.65
>>> numeric_value("DVYASKVRLNASEREEL [PRP8]")
1.78
>>> numeric_value("LDLMFDEVYVQNSKFLK [YJL039C/NUP192]")
2.87
>>> numeric_value("DRNLTEFDSTDTSLCIN [RRI1]")
2.79
>>> numeric_value("PQEPKHIQEEEEQDVDM [RPC19]")
3.28
>>> numeric_value("RYNGGNDNIGANRSRFN [SMB1]")
3.35
>>> numeric_value("IQQHARYDCSFCGKKTV [RPL43A]")
3.06

---

- Protocol Details: protein stability index of a GFP-peptide fusion (yeast GPS) (PSI 1-4); higher = more stable; sorted into four equal gates, so the index is relative within each strain
- Protocol Conditions: san1∆
Parameter protein stability index: see the listing below.
Recorded Metric: protein stability index

>>> numeric_value("QTATQLLERGRLRKRVT [SMC2]")
2.92
>>> numeric_value("SADREIQRTLMELLTQM [RPT4]")
3.27
>>> numeric_value("EPYVAYGYPSYSTIRQL [RPL7A]")
2.14
>>> numeric_value("LLLKKIIKDYVLDIVPG [SRB4]")
2.33
>>> numeric_value("VKGTNISEKDLVPKRCL [RPO31]")
3.42
>>> numeric_value("RVLEIQTSLVRMFEKNV [SKI6]")
2.51
>>> numeric_value("KKEKLDSGEVDADGDID [DPB4]")
3.29
>>> numeric_value("SNLSPDLKFKRHKNKHI [DSN1]")
2.28
>>> numeric_value("QPYEDRPFEGLFVISTE [RRP45]")
3.11
>>> numeric_value("IISSNENALIELKNELA [YIL149C/MLP2]")
2.71
>>> numeric_value("APEIPEDLYYLIKKAVS [RPS13]")
3.07
>>> numeric_value("DAGKLVYVTGGRNLGRI [RPS4A]")
3.08
>>> numeric_value("KKAFTSYDRTLLIADSR [RPS16A]")
1.9
>>> numeric_value("PKTGKVERSEAISKKDL [SEC65]")
3.33
>>> numeric_value("PTESYLQYIIHDTLNNE [BRR2]")
2.37
